- System: MDR1
- experiment description: in vitro
- protocol conditions: dog, MDCK-MDR1, pH 7.4, MDCK-MDR1: Papp A-B (10^−6, cm/s)
property name: Papp A→B at 120 min, 5 μM (×10⁻⁶ cm/s)
Hi! Could you send only the number? It should be in ×10⁻⁶ cm/s, unit omitted.

COc1cc(-c2cc(O)c(-c3cnc(N(C4CC4)[C@@H]4CC5CC[C@H](N5)[C@@H]4F)cn3)cc2F)ccn1 (single isomer, unassigned) ... 0.52
CN(c1cnc(-c2cc(F)c(-c3ccn(CF)c(=O)c3)cc2O)cn1)[C@H]1C[C@@H]2CCC(N2)[C@H]1F (single isomer, unassigned) ... 2.58

Inquiry: Param item = `CN(c1cnc(-c2cc(F)c(-c3cn[nH]c3)cc2O)cn1)[C@H]1C[C@]2(C)CC[C@@](C)(N2)[C@H]1F` ; retrieve measured Papp A→B at 120 min, 5 μM.
Reply text: 5.8

----------
- System: MDR1 (P-gp)
- experiment description: MDCK-MDR1 permeability assay, blood-brain-barrier penetration potential
- protocol conditions: dog, MDCK-MDR1, pH 7.4, MDCK-MDR1 Efflux Ratio
property name: efflux ratio at 120 min, 5 μM
Respond with the number and no other words.

For orientation, consider the following solved cases.
COc1cc(-c2ccc(-c3cnc(N(C)[C@@H]4CC5N[C@H](C4)CC5(F)F)cn3)c(O)c2)cnn1 (single isomer, unassigned) [Compound 68E1] ... 5
CN(c1cnc(-c2ccc(-c3nnco3)cc2O)cn1)[C@H]1C[C@@H]2CCC(N2)[C@H]1F (single isomer, unassigned) [Compound 80E2] ... 4

Inquiry: Param item = Oc1cc(-c2cn[nH]c2)c(F)cc1-c1cnc(N(C2CC2)[C@@H]2CC3CC[C@H](N3)[C@@H]2F)cn1 (single isomer, unassigned) [Compound 41E1] ; retrieve measured efflux ratio at 120 min, 5 μM.
Reply text: 8

----------
- System: MDR1-MDCK cell monolayers
- protocol conditions: dog, MDCK-MDR1, 120 min, 5 μM, pH 7.4
Lab note - cut at 70% for MDCK-MDR1: % Recov A-B (%): TRUE if strictly below, FALSE if not.

Use these answered entries as a reference point.
COc1cc(-c2cc(O)c(-c3cnc(N(C)[C@@H]4CC5CC[C@H](N5)[C@@H]4F)cn3)cc2F)cc(F)n1 (single isomer, unassigned) [Compound 31E1] ... TRUE
CN(c1cnc(-c2cc(F)c(-c3cn[nH]c3)cc2O)cn1)[C@@H]1CC2CC[C@H](N2)[C@@H]1F (single isomer, unassigned) [Compound 40E1] ... TRUE

Inquiry: Strictly below 70%: is that where MDCK-MDR1: % Recov A-B (%) of Cc1nc(-c2ccc(-c3cnc(N(C)[C@H]4C[C@@H]5CCC(N5)[C@H]4F)cn3)c(O)c2)no1 (single isomer, unassigned) [Compound 69E2] sits?
Reply text: TRUE

Inquiry: Another compound to check: CN(c1cnc(-c2ccc(-c3cnn(CF)c3)cc2O)cn1)[C@H]1C[C@@H]2CCC(N2)[C@H]1F (single isomer, unassigned) [Compound 42E2]
Reply text: TRUE

Inquiry: Another compound to check: COc1cc(-c2cc(O)c(-c3cnc(N(C)[C@@H]4CC5CC(F)(F)[C@@H](C4)N5)cn3)cc2F)cnn1 (single isomer, unassigned) [Compound 67E1]
Reply text: TRUE

Inquiry: Another compound to check: CN(c1cnc(-c2ccc(C3=CC(=O)NC3)cc2O)cn1)[C@@H]1CC2CC[C@H](N2)[C@@H]1F (single isomer, unassigned) [Compound 78E1]
Reply text: FALSE

Inquiry: Another compound to check: Cn1ccc(-c2cc(O)c(-c3cnc(N(C4CC4)[C@@H]4CC5CC[C@H](N5)[C@@H]4F)cn3)cc2F)cc1=O (single isomer, unassigned) [Compound 38E1]
Reply text: FALSE
